# experimental-protocol: Stability test under stress conditions (PXRD, DSC, appearance, HPLC)
# reported-conditions: stress conditions; HPLC; 4 weeks
parameter: Content (%)

                           substance_smiles  parameter  reported_value
0  C=CC(=O)Nc1cc(Nc2nccc(-n3cc(CN(C)C)c(-c4ccccc4)n3)n2)c(OC)cc1N1CCOCC1.O=C(O)CC(O)(CC(=O)O)C(=O)O    Content            98.6
1  C=CC(=O)Nc1cc(Nc2nccc(-n3cc(CN(C)C)c(-c4ccccc4)n3)n2)c(OC)cc1N1CCOCC1.CCS(=O)(=O)O    Content            89.5
2  C=CC(=O)Nc1cc(Nc2nccc(-n3cc(CN(C)C)c(-c4ccccc4)n3)n2)c(OC)cc1N1CCOCC1    Content            98.9
3  C=CC(=O)Nc1cc(Nc2nccc(-n3cc(CN(C)C)c(-c4ccccc4)n3)n2)c(OC)cc1N1CCOCC1.Cl    Content            95.2

---

# key: entry, value: Content
# experimental-protocol: Stability test under stress conditions (PXRD, DSC, appearance, HPLC)
# reported-conditions: stress conditions; HPLC; 2 weeks
parameter: Content (%)

>>> df
                           substance_smiles  parameter  reported_value
0  C=CC(=O)Nc1cc(Nc2nccc(-n3cc(CN(C)C)c(-c4ccccc4)n3)n2)c(OC)cc1N1CCOCC1.CCS(=O)(=O)O    Content            94.7
1  C=CC(=O)Nc1cc(Nc2nccc(-n3cc(CN(C)C)c(-c4ccccc4)n3)n2)c(OC)cc1N1CCOCC1.Cl    Content            96.2
2  C=CC(=O)Nc1cc(Nc2nccc(-n3cc(CN(C)C)c(-c4ccccc4)n3)n2)c(OC)cc1N1CCOCC1    Content            97.7
3  C=CC(=O)Nc1cc(Nc2nccc(-n3cc(CN(C)C)c(-c4ccccc4)n3)n2)c(OC)cc1N1CCOCC1.O=C(O)CC(O)(CC(=O)O)C(=O)O    Content            98.9

---

# reported-conditions: accelerated conditions; start to 6 months
Entries annotated with measured Purity Change
parameter: Purity Change (%)

                           substance_smiles  reported_value
0  C=CC(=O)Nc1cc(Nc2nccc(-n3cc(CN(C)C)c(-c4ccccc4)n3)n2)c(OC)cc1N1CCOCC1.O=C(O)CC(O)(CC(=O)O)C(=O)O            −1.5
1  C=CC(=O)Nc1cc(Nc2nccc(-n3cc(CN(C)C)c(-c4ccccc4)n3)n2)c(OC)cc1N1CCOCC1.Cl            −0.2
2  C=CC(=O)Nc1cc(Nc2nccc(-n3cc(CN(C)C)c(-c4ccccc4)n3)n2)c(OC)cc1N1CCOCC1.CCS(=O)(=O)O            −1.1

---

# reported-conditions: accelerated conditions; 1 mo
parameter: Water content

>>> df
                                   compound  reported_value
0  C=CC(=O)Nc1cc(Nc2nccc(-n3cc(CN(C)C)c(-c4ccccc4)n3)n2)c(OC)cc1N1CCOCC1.CCS(=O)(=O)O [C. Ex. 4]           2.48%
1  C=CC(=O)Nc1cc(Nc2nccc(-n3cc(CN(C)C)c(-c4ccccc4)n3)n2)c(OC)cc1N1CCOCC1 [Ex. 1]           2.73%
2  C=CC(=O)Nc1cc(Nc2nccc(-n3cc(CN(C)C)c(-c4ccccc4)n3)n2)c(OC)cc1N1CCOCC1.Cl [C. Ex. 2]           0.98%
3  C=CC(=O)Nc1cc(Nc2nccc(-n3cc(CN(C)C)c(-c4ccccc4)n3)n2)c(OC)cc1N1CCOCC1.O=C(O)CC(O)(CC(=O)O)C(=O)O [C. Ex. 3]           0.83%
